target: MIF2 (Homo sapiens, UniProt P30046); construct: made in house; host or cells: E. coli BL21(DE3), pET20b(+); test: MIF2 tautomerase activity inhibition (PP substrate, UV 300 nm); format: biochemical; conditions: Table S3 dose-inhibition curves (DDT activity); read-out: IC50 MIF2 tautomerase
Sequence (P30046 2-118 limits assumed): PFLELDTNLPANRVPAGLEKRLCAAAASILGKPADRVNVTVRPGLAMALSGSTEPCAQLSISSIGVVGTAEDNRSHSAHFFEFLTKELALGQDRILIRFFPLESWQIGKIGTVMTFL
Recorded endpoint: IC50 (µM)

[[record]]
molecule = "Cc1nc(Cl)cc(-c2ccc(C(=O)O)cc2)n1 [Compound 3a]"
experimental_system = "MIF2 (Homo sapiens, UniProt P30046)"
result = 107


* * *

target: MIF2 (Homo sapiens); construct: made in house; host or cells: E. coli BL21(DE3), pET20b(+); experiment: MIF2 tautomerase activity inhibition (PP substrate, UV 300 nm); assay type: biochemical; details: Table S1; 10 min; read-out: IC50 (µM) MIF2
Recorded endpoint: IC50

[[record]]
molecule = "Clc1cc(-c2ccccc2)ncn1"
experimental_system = "MIF2 (Homo sapiens)"
result = "> 250 µM"

[[record]]
molecule = "O=[N+]([O-])c1ccc(-c2cc(Cl)ncn2)cc1"
experimental_system = "MIF2 (Homo sapiens)"
result = "> 250 µM"

[[record]]
molecule = "CC(C)c1nc(I)cc(-c2ccc(C(=O)O)cc2)n1"
experimental_system = "MIF2 (Homo sapiens)"
result = "> 250 µM"

[[record]]
molecule = "CC(C)c1nc(Cl)cc(-c2ccc(C(=O)O)cc2)n1 [Compound 11a]"
experimental_system = "MIF2 (Homo sapiens)"
result = "> 250 µM"

[[record]]
molecule = "Nc1ccc(-c2cc(Cl)ncn2)cc1"
experimental_system = "MIF2 (Homo sapiens)"
result = "83 µM"

[[record]]
molecule = "Cc1c(Cl)ncnc1-c1ccc(C(=O)O)cc1"
experimental_system = "MIF2 (Homo sapiens)"
result = "> 250 µM"

[[record]]
molecule = "Cc1nc(Cl)cc(-c2ccc(C(=O)O)cc2)n1"
experimental_system = "MIF2 (Homo sapiens)"
result = "103 µM"

[[record]]
molecule = "O=C(O)c1ccc(-c2cc(Cl)nc(N3CCOCC3)n2)cc1"
experimental_system = "MIF2 (Homo sapiens)"
result = "> 250 µM"

[[record]]
molecule = "O=C(O)c1ccc(-c2cc(Cl)nc(-c3ccccc3)n2)cc1"
experimental_system = "MIF2 (Homo sapiens)"
result = "85 µM"

[[record]]
molecule = "O=C(O)c1ccc(-c2cc(Cl)ncn2)cc1"
experimental_system = "MIF2 (Homo sapiens)"
result = "> 250 µM"


* * *

In this section we review reported IC50 values for a set of molecules.
Target: MIF (Homo sapiens, UniProt P14174)
Construct: His tag (C); made in house; host or cells: Escherichia coli BL21 (DE3), pET-20b(+)
Sequence (P14174 2-115 limits assumed): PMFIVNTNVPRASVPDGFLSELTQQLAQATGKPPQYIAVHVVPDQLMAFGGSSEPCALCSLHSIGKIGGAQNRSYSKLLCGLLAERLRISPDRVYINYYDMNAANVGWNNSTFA
Assay: MIF tautomerase activity inhibition (4-HPP substrate, UV 306 nm)
Format: biochemical
Details: Table S1; 10 min; read-out: IC50 (µM) MIF
Recorded endpoint: IC50 (µM)

[[record]]
compound_structure_string = "O=C(O)c1ccc(-c2cc(Cl)nc(N3CCOCC3)n2)cc1"
experimental_system = "MIF (Homo sapiens, UniProt P14174)"
recorded_endpoint = "IC50"
unit_tag = "µM"
limit_operator = "="
result = 174

[[record]]
compound_structure_string = "Cc1c(Cl)ncnc1-c1ccc(C(=O)O)cc1"
experimental_system = "MIF (Homo sapiens, UniProt P14174)"
recorded_endpoint = "IC50"
unit_tag = "µM"
limit_operator = ">"
result = 250

[[record]]
compound_structure_string = "O=C(O)c1ccc(-c2cc(Cl)nc(-c3ccccc3)n2)cc1"
experimental_system = "MIF (Homo sapiens, UniProt P14174)"
recorded_endpoint = "IC50"
unit_tag = "µM"
limit_operator = "="
result = 36

[[record]]
compound_structure_string = "Nc1ccc(-c2cc(Cl)ncn2)cc1"
experimental_system = "MIF (Homo sapiens, UniProt P14174)"
recorded_endpoint = "IC50"
unit_tag = "µM"
limit_operator = "="
result = 1.7

[[record]]
compound_structure_string = "Clc1cc(-c2ccccc2)ncn1"
experimental_system = "MIF (Homo sapiens, UniProt P14174)"
recorded_endpoint = "IC50"
unit_tag = "µM"
limit_operator = "="
result = 16

